All figures here come from patent US20070014720A1.

Reported % Lysis Ramos 0.001 µg/ml ADCC values for the following binders.
# MEASURED_ON: T1, human CD20 (human, UniProt P11836 1-297)
# T1 sequence (looked up): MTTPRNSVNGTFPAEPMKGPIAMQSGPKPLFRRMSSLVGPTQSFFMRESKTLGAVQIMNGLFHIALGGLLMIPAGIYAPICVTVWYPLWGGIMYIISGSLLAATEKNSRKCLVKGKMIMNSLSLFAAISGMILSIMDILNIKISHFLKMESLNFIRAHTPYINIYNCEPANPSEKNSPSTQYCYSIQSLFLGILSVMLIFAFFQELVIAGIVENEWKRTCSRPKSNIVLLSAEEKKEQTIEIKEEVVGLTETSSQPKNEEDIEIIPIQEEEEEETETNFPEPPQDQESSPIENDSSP
# PROTOCOL: cell-based or functional assay
Number only, in %; omit the unit.

Please review the entries below; each comes with its answer.
{"BINDER": "mAb 1.6.2 (antibody, human IgG1, V domains shown) VH: EVQLVQSGAEVKKPGESLKISCKGSGYSFTSYWIGWVRQMPGKGLEWMGIIYPGDSDTRYSPSFQGQVTISADKSISTAYLQWSSLKASDTAMYYCARHGDYSNIDAFDIWGQGTMVTVSS VL: DVVMTQSPLSLPVTLGQPASISCRSSQSLVYSDGNAYLNWFQQRPGQSPRRLIYKVSNWDSGVPDRFSGSGSGTDFTLKIRRVEAEDVGAYYCMQGIHCTFGPGTKVHIK", "UNITS_LABEL": "%", "% Lysis Ramos 0.001 µg/ml ADCC": 3}
{"BINDER": "mAb 2.1.2 (ATCC Accession Number PTA-7328) (antibody, human IgG1, V domains shown, Human IgG1 kappa; also called 2.1.1; 50-001H2_1_1) VH: EVQLVQSGAEVKKPGESLKISCKGSGYSFTSYWIGWVRQMPGKGLEWMGIIYPGDSDTRYSPSFQGQVTISADKSISTAYLQWSSLKASDTAMYYCARQGDFWSGYGGMDVWGQGTTVTVSS VL: DIVMTQTPHSSPVTLGQPASISCRSSQSLVSRDGNTYLSWLQQRPGQPPRLLIYKISNRFSGVPNRFSGSGAGTDFTLKISRVKAEDVGVYYCMQATQFPLTFGQGTRLEIK", "UNITS_LABEL": "%", "% Lysis Ramos 0.001 µg/ml ADCC": 8}
{"BINDER": "mAb 1.12.3 (antibody, human IgG1, V domains shown) VH: EVQLVQSGAEVKKPGESLKISCKGSGYSFTSYWIGWVRQMSGKGLEWMGIIYPGDSDTRYSPSFQGQVTISADKSISTAYLQWSSLKASDTAIYYCARHPSYGSGSPNFDYWGQGTLVTVSS VL: DIVMTQTPLSSPVTLGQPASISCRSSQSLVYSDGNTYLSWLQQRPGQPPRLLFYKISNRFSGVPDRFSGSGAGTDFTLKISRVEAEDVGVYYCVQATQFPLTFGGGTKVEIK", "UNITS_LABEL": "%", "% Lysis Ramos 0.001 µg/ml ADCC": 2}
{"BINDER": "mAb 1.13.2 (antibody, human IgG1, V domains shown, Human IgG1 kappa; also called 1.13.1; 50-001H1_13_1) VH: EVQLVQSGAEVKKPGESLKISCKGSGYSFTNYWIGWVRQMPGKGLEWMGIIYPGDSDTRYSPSFQGQVTISADKSISTAYLQWSSLKASDTAMYYCARQGDYYHYSGMDVWGQGTTVTVSS VL: DVVMTQSPLSLSVTLGQPASISCRSSQSLVYNDGDTYLNWFQQRPGQSPRLLIYKVSNWDSGVPDRFSGSGSGTDFTLKVSRVEAEDVGVYYCMQGTHWPLTFGGGTKVEIK", "UNITS_LABEL": "%", "% Lysis Ramos 0.001 µg/ml ADCC": 4}
{"BINDER": "mAb 1.2.1 (antibody, human IgG1, V domains shown, Human IgG1 kappa; also called 1.2.1.1; 50-001H1_2_1_1) VH: EVQLVQSGAEVKKPGESLKISCKGSGYSFTSYWIGWVRQMPGKGLEWMGIIYPGDSDTRYSPSFQGQVTISADKSISTAYLQWSSLKASDTAMYYCARLGDYYNYYGMDVWGQGTTVTVSS VL: DIVMTQTPLSSPVTLGQPASISCRSSQSLVHSDGKTYLSWLQQRPGQPPRLLIYKSSNRFSGVPDRFSGSGAGTDFTLKISRVEAEDVGVYYCVQATQFPITFGQGTRLEIK", "UNITS_LABEL": "%", "% Lysis Ramos 0.001 µg/ml ADCC": 8}

**Query** What does the record list as % Lysis Ramos 0.001 µg/ml ADCC for mAb 2.2.2 (antibody, human IgG1, V domains shown) VH: EVQLVQSGAEVKKPGESLKISCKGSGYSFTSYWIGWVRQMPGKGLEWMGIIYPGDSDTKYSPSFQGQVTISADKSISTAYLQWSSLKASDTAMYYCARQGDFWSGNGGMDVWGQGTTVTVSS VL: DIVMTQTPLSSPVTLGQPASISCRSSQSLVSRDGNTYLSWLQQRPGQPPRLLIYKISNRFSGVPDRFSGSGAGTDFTLKISRVEVEDVGVYYCMQATQFPITFGQGTRLEIK ?
**Result** 12
